# Tested on: rats
# run description: Pharmacological characteristics at equivalent doses (2×ED50) in rats
# details: 2×ED50, tail vein, time of LORR
criterion met if Onset time is below 0.4 min. criterion not met if not; exact matches included in criterion not met.

INSERT INTO measurements (compound, discrete_label) VALUES
  ('C[C@H](c1ccccc1)n1cnc(F)c1C(=O)OC1CCC1', 'criterion not met'),
  ('CCC(=O)C1(OC(=O)c2cncn2[C@H](C)c2ccccc2)CC1', 'criterion not met'),
  ('C[C@H](c1ccccc1)n1cnc(F)c1C(=O)OCC(C)(C)C', 'criterion not met'),
  ('C=C=CC1(OC(=O)c2cncn2[C@H](C)c2ccccc2)CCOCC1', 'criterion met'),
  ('C[C@H](c1ccccc1)n1cnc(F)c1C(=O)OC1CC1', 'criterion met'),
  ('C#CC1(OC(=O)c2c(F)ncn2[C@H](C)c2ccccc2)COC1', 'criterion not met'),
  ('CCOC(=O)c1c(Cl)nc(Cl)n1[C@H](C)c1ccccc1', 'criterion not met'),
  ('C[C@H](c1ccccc1)n1cnc(F)c1C(=O)OC1CSC1', 'criterion not met'),
  ('C[C@H](c1ccccc1)n1cncc1C(=O)OC1(CC2CO2)COC1 (some centres unmarked)', 'criterion not met'),
  ('CC(=O)C1(OC(=O)c2cncn2[C@H](C)c2ccccc2)CC1', 'criterion met'),
  ('COCC1(COC(=O)c2c(F)ncn2[C@H](C)c2ccccc2)CCC1 [Compound E2]', 'criterion met'),
  ('CC#CC1(OC(=O)c2cncn2[C@H](C)c2ccccc2)CCCCC1', 'criterion not met'),
  ('CC(OC(=O)c1cncn1[C@H](C)c1ccccc1)C1CC1 (some centres unmarked)', 'criterion met'),
  ('C=C=CC1(OC(=O)c2c(F)ncn2[C@H](C)c2ccccc2)COC1', 'criterion met'),
  ('C[C@H](c1ccccc1)n1cncc1C(=O)OC1(C)COC1', 'criterion met'),
  ('CCC#CC(C)OC(=O)c1cncn1[C@H](C)c1ccccc1 (some centres unmarked)', 'criterion met'),
  ('CC#CC1(OC(=O)c2c(F)ncn2[C@H](C)c2ccccc2)COC1', 'criterion not met'),
  ('C#CC1(OC(=O)c2c(Cl)nc(Cl)n2[C@H](C)c2ccccc2)COC1', 'criterion not met'),
  ('C=C=CC1(SC(=O)c2cncn2[C@H](C)c2ccccc2)COC1', 'criterion not met');

---

# System: rats
# Description: Adult male Sprague-Dawley rats (250-300 g) were selected for the experiment. […] The anesthesia effects of the compounds were assessed in rats using a LORR assay and a period >30 s was considered as an indicator of general anesthesia. Then the up and down method was used to determine 50% effective dose (ED50). The drugs were administered through the tail vein of rats in a volume of 0.6 mL and at a rate of 0.1 mL/s.
readout: Minimal lethal dose

INSERT INTO results (molecule, observed_result) VALUES
  ('CCC1(COC(=O)c2cncn2[C@H](C)c2ccccc2)COC1 [Compound B9]', '>18 mg/kg'),
  ('CC#CC(C)(C)OC(=O)c1c(F)ncn1[C@H](C)c1ccccc1 [Compound E17]', '>9 mg/kg'),
  ('CCC1(COC(=O)c2cncn2[C@H](C)c2ccccc2)CC1 [Compound A9]', '>5 mg/kg'),
  ('C[C@H](c1ccccc1)n1cncc1C(=O)OCCC1CCC1 [Compound A18]', '>5 mg/kg'),
  ('CCC(C)(C)OC(=O)c1cncn1[C@H](C)c1ccccc1 [Compound C19]', '>5 mg/kg'),
  ('C[C@H](c1ccccc1)n1cnc(F)c1C(=O)OC1COC1 [Compound E10]', '>10 mg/kg'),
  ('CCC(C)(CC)OC(=O)c1c(F)ncn1[C@H](C)c1ccccc1 [Compound E30]', '>6 mg/kg'),
  ('C=CC#CC(C)(C)OC(=O)c1cncn1[C@H](C)c1ccccc1 [Compound D37]', '>10 mg/kg'),
  ('C=C=CC(CC)OC(=O)c1c(F)ncn1[C@H](C)c1ccccc1 (stereo partly drawn) [Compound E77]', '>10 mg/kg');

---

Measured Approximate therapeutic index on rats follows.
readout: Approximate therapeutic index

INSERT INTO results (molecule, target_desc, observed_result) VALUES
  ('C=CC(C)(C)OC(=O)c1c(F)ncn1[C@H](C)c1ccccc1', 'rats', '>30'),
  ('CC#CC(C)OC(=O)c1cncn1[C@H](C)c1ccccc1 (stereo partly drawn)', 'rats', '>16'),
  ('CCCC1(OC(=O)c2cncn2[C@H](C)c2ccccc2)COC1', 'rats', '>11'),
  ('C=C=CC1(OC(=O)c2cncn2[C@H](C)c2ccccc2)CSC1', 'rats', '>16'),
  ('C[C@H](c1ccccc1)n1cncc1C(=O)OC1(CC2CO2)COC1 (stereo partly drawn)', 'rats', '>10'),
  ('C[C@H](c1ccccc1)n1cnc(F)c1C(=O)OC1COC1', 'rats', '>14'),
  ('C=CC#CC(C)(C)OC(=O)c1cncn1[C@H](C)c1ccccc1', 'rats', '>13'),
  ('C[C@H](c1ccccc1)n1cnc(F)c1C(=O)OCC1CC1', 'rats', '>22'),
  ('CC(C)OC(=O)c1c(F)ncn1[C@H](C)c1ccccc1', 'rats', '>45'),
  ('C[C@H](c1ccccc1)n1cnc(F)c1C(=O)OC1CSC1', 'rats', '>60'),
  ('C=C=CC1(OC(=O)c2cncn2[C@H](C)c2ccccc2)CCOCC1', 'rats', '>13'),
  ('CC(=O)C(C)(C)OC(=O)c1c(F)ncn1[C@H](C)c1ccccc1', 'rats', '>24'),
  ('CCC(CC)OC(=O)c1c(F)ncn1[C@H](C)c1ccccc1', 'rats', '>30'),
  ('C=C=CC1(SC(=O)c2c(F)ncn2[C@H](C)c2ccccc2)CSC1', 'rats', '>30'),
  ('C=CCC1(OC(=O)c2cncn2[C@H](C)c2ccccc2)CCC1', 'rats', '>14'),
  ('COC(=O)C1(OC(=O)c2cncn2[C@H](C)c2ccccc2)CC1 [CPMM, cyclopropyl methoxycarbonyl methylate, reference compound]', 'rats', '>10'),
  ('C[C@H](c1ccccc1)n1cnc(F)c1C(=O)OC1(C)CCC1', 'rats', '>24'),
  ('C[C@H](c1ccccc1)n1cncc1C(=O)OCC1(C)CSC1', 'rats', '>10');

---

# Test system: rats
# run description: Pharmacological characteristics at equivalent doses (2×ED50) in rats
# details: 2×ED50, tail vein, time of LORR
Grouping by measured Onset time is done with the following cut points: group 1 (below 0.2 min), group 2 (0.2 min to below 0.4 min), group 3 (0.4 min or more)

INSERT INTO assay_data (compound, discrete_label) VALUES
  ('CCOC(=O)c1c(Cl)ncn1[C@H](C)c1ccccc1', 'group 3'),
  ('C[C@H](c1ccccc1)n1cnc(F)c1C(=O)OC1(C)CCC1', 'group 2'),
  ('C=C=CC1(SC(=O)c2c(F)ncn2[C@H](C)c2ccccc2)CSC1', 'group 3'),
  ('CCCC(CCC)OC(=O)c1cncn1[C@H](C)c1ccccc1', 'group 3'),
  ('CC#CC(C)(C)OC(=O)c1c(F)ncn1[C@H](C)c1ccccc1', 'group 2'),
  ('CCCC(C)(C)OC(=O)c1c(F)ncn1[C@H](C)c1ccccc1', 'group 3'),
  ('C=CC1(OC(=O)c2cncn2[C@H](C)c2ccccc2)COC1', 'group 1'),
  ('CC#CC(C)OC(=O)c1cncn1[C@H](C)c1ccccc1 (stereo partly shown)', 'group 3'),
  ('C=CC#CC(C)OC(=O)c1c(F)ncn1[C@H](C)c1ccccc1 (stereo partly shown)', 'group 3'),
  ('CSCCSC(=O)c1cncn1[C@H](C)c1ccccc1', 'group 2'),
  ('CCC(CC)OC(=O)c1c(F)ncn1[C@H](C)c1ccccc1', 'group 3'),
  ('C#CC1(OC(=O)c2cncn2[C@H](C)c2ccccc2)CCC1 [Compound D1]', 'group 2'),
  ('C=C=CC1(OC(=O)c2cncn2[C@H](C)c2ccccc2)COC1', 'group 1'),
  ('CCC(C)(C)OC(=O)c1c(F)ncn1[C@H](C)c1ccccc1', 'group 3'),
  ('C=C=CC(CC)OC(=O)c1c(F)ncn1[C@H](C)c1ccccc1 (stereo partly shown)', 'group 1'),
  ('CC(=O)C(C)(C)OC(=O)c1c(F)ncn1[C@H](C)c1ccccc1', 'group 1'),
  ('CC#CCOC(=O)c1cncn1[C@H](C)c1ccccc1', 'group 2'),
  ('C#CC(C)(C)OC(=O)c1cncn1[C@H](C)c1ccccc1', 'group 2');

---

Measured Minimal lethal dose on rats follows.
readout: Minimal lethal dose

INSERT INTO results (compound, readout, observed_result) VALUES
  ('C=C=CC1(OC(=O)c2c(F)ncn2[C@H](C)c2ccccc2)CCCCC1 [Compound E36]', 'Minimal lethal dose', '>5 mg/kg'),
  ('C[C@H](c1ccccc1)n1c(Cl)nc(Cl)c1C(=O)OC1COC1 [Compound E132]', 'Minimal lethal dose', '>10 mg/kg'),
  ('C#CC(C)OC(=O)c1cncn1[C@H](C)c1ccccc1 (stereo partly drawn) [Compound D14]', 'Minimal lethal dose', '>3 mg/kg'),
  ('C#CC(C)(C)OC(=O)c1c(F)ncn1[C@H](C)c1ccccc1 [Compound E25]', 'Minimal lethal dose', '>6 mg/kg'),
  ('CC#CC(C)OC(=O)c1cncn1[C@H](C)c1ccccc1 (stereo partly drawn) [Compound D32]', 'Minimal lethal dose', '>5 mg/kg'),
  ('C=C=CC1(OC(=O)c2cncn2[C@H](C)c2ccccc2)CCCCC1 [Compound D43]', 'Minimal lethal dose', '>1 mg/kg'),
  ('CCOC(=O)c1cncn1[C@H](C)c1ccccc1 [Etomidate, reference compound]', 'Minimal lethal dose', '12.75 mg/kg'),
  ('C=C=CC(C)OC(=O)c1c(F)ncn1[C@H](C)c1ccccc1 (stereo partly drawn) [Compound E18]', 'Minimal lethal dose', '>1 mg/kg'),
  ('CC(=O)CCOC(=O)c1cncn1[C@H](C)c1ccccc1 [Compound C7]', 'Minimal lethal dose', '>4 mg/kg');

Cited source for all entries: patent US11434205B2
